Where do these numbers come from? They come from patent US11111245B2.

- assay.system: CDKs and other kinases (Homo sapiens, UniProt P50613)
- Construct: other: CDK7H; residual activity (%) at 10 μM CDK7H; compound at 10 μM
- Sequence (P50613 whole entry): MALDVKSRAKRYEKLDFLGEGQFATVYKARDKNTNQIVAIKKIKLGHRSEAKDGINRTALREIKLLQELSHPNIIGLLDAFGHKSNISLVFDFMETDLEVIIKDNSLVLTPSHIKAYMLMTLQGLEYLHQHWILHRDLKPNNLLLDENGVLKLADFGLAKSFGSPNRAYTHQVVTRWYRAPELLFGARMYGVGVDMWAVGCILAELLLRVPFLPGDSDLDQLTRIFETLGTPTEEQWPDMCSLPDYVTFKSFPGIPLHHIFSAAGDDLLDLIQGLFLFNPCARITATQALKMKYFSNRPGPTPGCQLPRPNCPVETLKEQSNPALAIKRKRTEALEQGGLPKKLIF
- measurement.protocol: Radiometric kinase assay (Eurofins Pharma Discovery or Reaction Biology Corporation Kinase Profiler)
- Format: biochemical
- run.parameters: CDK7H; read-out: CDK inhibition, Ki (μM) CDK7H
Hi there, I'd appreciate the recorded log10(Ki) for every entry that follows.
The figures below represent log10 of Ki, where Ki is stated in µM.

Quick one: give me log10(Ki) for each item below, same order please.
1. N[C@H]1CC[C@H](Nc2ncc(Cl)c(-c3cnc4c(-c5cccnc5)cc(C(F)(F)F)cn34)n2)CC1 [Compound 86]
2. Cc1cnc(N[C@H]2CC[C@H](N)CC2)nc1-c1cnc2ccc(-c3cccnc3)cn12 [Compound 29]
3. Cc1cnc(N[C@H]2CC[C@H](N)CC2)nc1-c1cnc2ccc(Nc3cccnn3)cn12 [Compound 71]
4. Cc1cnc(N[C@H]2CC[C@H](N)CC2)nc1-c1cnc2cc(C(F)(F)F)c(-c3ccccc3)cn12 [Compound 150]
5. CN1CCC(Nc2ncc(F)c(-c3cnc4ccccn34)n2)CC1 [Compound 19]
6. CS(=O)(=O)N[C@H]1CC[C@H](Nc2ncc(Cl)c(-c3cnc4c(Br)cc(C(F)(F)F)cn34)n2)CC1 [Compound 18]
7. Cc1cnc(N[C@H]2CC[C@H](O)CC2)nc1-c1cnc2ccc(Nc3cncnc3)cn12 [Compound 108]
8. Fc1cnc(NC2CCNCC2)nc1-c1cnc2ccc(-c3ccccc3)cn12 [Compound 143]

1: -1.36; 2: 0.44; 3: 0.72; 4: -0.43; 5: -0.57; 6: -3.00; 7: 0.68; 8: -1.06

Quick one: give me log10(Ki) for each item below, same order please.
1. COC(=O)CN[C@H]1CC[C@H](Nc2ncc(F)c(-c3cnc4ccccn34)n2)CC1 [Compound 15]
2. N[C@H]1CC[C@H](Nc2ncc(Cl)c(-c3cnc4ccc(-c5cccnc5)cn34)n2)CC1 [Compound 35]
3. Cc1cnc(NC2CCC(N(C)C)CC2)nc1-c1cnc2ccc(Nc3cncnc3)cn12 (centres unmarked) [Compound 99]
4. Cc1cnc(N[C@H]2CC[C@H](N)CC2)nc1-c1cnc2ccc(Nc3cncnc3)cn12 [Compound 115]
5. CS(=O)(=O)N1CCC(Nc2ncc(F)c(-c3cnc4ccccn34)n2)CC1 [Compound 24]
6. Cc1cnc(N[C@H]2CC[C@H](N)CC2)nc1-c1cnc2cc(C(F)(F)F)c(Br)cn12 [Compound 114]
7. Cc1cnc(NC2CCC(N(C)C)CC2)nc1-c1cnc2ccc(Nc3cccnc3)cn12 (centres unmarked) [Compound 98]
8. N[C@H]1CC[C@H](Nc2ncc(Cl)c(-c3cnc4c(-c5ccccc5)cc(C(F)(F)F)cn34)n2)CC1 [Compound 85]

1: -0.82; 2: -0.57; 3: 0.49; 4: 0.60; 5: -0.55; 6: -1.12; 7: 0.22; 8: -1.32

Quick one: give me log10(Ki) for each item below, same order please.
1. CC(=O)NC1CCC(Nc2ncc(C)c(-c3cnc4ccc(Nc5cncnc5)cn34)n2)CC1 (centres unmarked) [Compound 113]
2. N[C@H]1CC[C@H](Nc2ncc(F)c(-c3cnc4ccc(C(F)(F)F)cn34)n2)CC1 [Compound 3]
3. COc1ccc(-c2ccc3ncc(-c4nc(N[C@H]5CC[C@H](N)CC5)ncc4Cl)n3c2)cc1 [Compound 82]
4. N[C@H]1CC[C@H](Nc2ncc(F)c(-c3cnc4ccc(-c5ccc(CN6CCOCC6)cc5)cn34)n2)CC1 [Compound 47]
5. N[C@H]1CC[C@H](Nc2ncc(Cl)c(-c3cnc4ccc(Nc5cncnc5)cn34)n2)CC1 [Compound 88]
6. CN1CCC(Nc2ncc(F)c(-c3cnc4ccc(Nc5cncnc5)cn34)n2)CC1 [Compound 149]
7. Cc1cnc(N[C@H]2CC[C@H](N)CC2)nc1-c1cnc2ccccn12 [Compound 8]
8. N[C@H]1CC[C@H](Nc2ncc(Cl)c(-c3cnc4c(Br)cc(C(F)(F)F)cn34)n2)CC1 [Compound 14]

[0.41, -1.72, -0.82, -1.12, 0.10, -0.50, -0.42, -1.40]

Quick one: give me log10(Ki) for each item below, same order please.
1. N[C@H]1CC[C@H](Nc2ncc(Cl)c(-c3cnc4ccc(-c5ncccc5F)cn34)n2)CC1 [Compound 40]
2. Cc1ccc(Nc2ccc3ncc(-c4nc(N[C@H]5CC[C@H](N)CC5)ncc4C)n3c2)cn1 [Compound 69]
3. Cc1cncc(Nc2ccc3ncc(-c4nc(N[C@H]5CC[C@H](N)CC5)ncc4C)n3c2)c1 [Compound 64]

[-1.42, -0.02, 0.16]

Quick one: give me log10(Ki) for each item below, same order please.
1. CN1CCC(Nc2ncc(F)c(-c3cnc4ccc(-c5ccccc5)cn34)n2)CC1 [Compound 144]
2. Fc1cnc(NC2CCN(CC3CC3)CC2)nc1-c1cnc2ccccn12 [Compound 22]
3. N[C@H]1CC[C@H](Nc2ncc(F)c(-c3cnc4ccccn34)n2)CC1 [Compound 1]

1. -1.14
2. -0.36
3. -1.59

Quick one: give me log10(Ki) for each item below, same order please.
1. Cc1cnc(N[C@H]2CC[C@H](N)CC2)nc1-c1cnc2ccc(Nc3ccc(OC(F)F)nc3)cn12 [Compound 68]
2. N[C@H]1CC[C@H](Nc2ncc(Cl)c(-c3cnc4cc(Nc5cncnc5)ccn34)n2)CC1 [Compound 118]

1: -0.15; 2: -1.74
